- Tested on: MDA-MB-231
- measurement notes: Cancer cell line activity screening
- Type: cell-based, human
- particulars: Homo sapiens, MDA-MB-231
readout name: IC50 (nM)
Form entry: value (nM) — number only.

For this compound ( Cc1ccc(S(=O)(=O)n2cc(I)c3nc(Cl)nc(Cl)c32)cc1 [Compound 9] ), measured IC50 is 790

Entry under test: Clc1nc(Cl)c2c(n1)c(I)cn2COCc1ccccc1 [Compound 8] . Its IC50 was 6100

IC50 for Clc1nc(Cl)c2[nH]cc(Br)c2n1 [Compound 6] is 400

For reference, reported IC50 for Clc1nc(Cl)c2[nH]cc(I)c2n1 [Compound 20] stands at 1200
